Biological target: T1, LIN7B, Q9HAP6
T1 sequence (Q9HAP6 88-185, limits assumed, looked up): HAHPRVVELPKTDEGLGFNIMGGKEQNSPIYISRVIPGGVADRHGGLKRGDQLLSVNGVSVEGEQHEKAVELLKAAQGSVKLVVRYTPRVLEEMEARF
Experiment: holdup assay
Parameters: key: below the threshold = too weak to quantify, mostly under pKd 3.1 to 4
Details: plain residues with an end cap or a label only (N-terminal biotin on a linker: ttds)
Please enter True where pKd is greater than or equal to 4, and False where it is lower.

Use the examples below as a reference point.
Binder	Qualitative label
GQDSREETQL [KCNT2, Q6UVM3]	False
RSLEEEESQL [GRASP, Q7Z6J2]	False
VLRLQSETSV [VANGL1, Q8TAA9]	False
SVWLRKETRV [CYSLTR2, Q9NS75]	True

Now for another entry.
input: # bool: pKd of STLTIFETAL [ABCC4, O15439] >= 4
output: True
